Would you kindly list fold repression for each of these binders?
# assayed target: T1, ECF16_3622
# T1 chain: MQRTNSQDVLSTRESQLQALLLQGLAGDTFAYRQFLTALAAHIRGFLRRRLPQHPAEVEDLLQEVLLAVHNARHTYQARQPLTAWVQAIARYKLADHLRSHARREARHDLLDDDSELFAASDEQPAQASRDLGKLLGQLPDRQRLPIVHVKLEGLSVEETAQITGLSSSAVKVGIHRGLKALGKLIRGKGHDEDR
Please respond with just the number, no unit label.

Kindly note the recorded fold repression for AS30_35 (protein) MDKRLQQLREEYKNVQIPKELDIIVEKALQQEPKKKRIVMWPTSAAIAAAILFTALVNINPDAAQAMSKIPVIGKIVKAITFIEIKEEKDQSSIDVKTPALSGLSNKELENSINEKYLKESQQLYKEFIQSTSKNKKGHLSIYSDYETVTDTPDLLSIRRNIETTQASSYTQSRYITIDKKNDILLTLKSLFKDERYIKVISQNIKEQMKQQMKEDPNKIYWLTDEDAEPFKTILPDQTFYITEDHKLVISFDEYEVAPGYMGVTEFTIPTGVISNLLVGERYIR , which is 1.39

Kindly note the recorded fold repression for AS04_1609 (protein) MNRTTEQRNAEVMKTIGLLDQMPRVEVDHLFRVRLMQRIEAMEVKKTSWSALPGGAFNPRLAFMALLLMLNIASALMLFMHGTPQATGSSGAIAESLTEDYGGPALSYYDDQTTIDR , which is 13.1

Kindly note the recorded fold repression for AS03_1244 (protein) MKQFDPDVNIRPKEDSIRHYSVPDDYFASFTDKLMAQIPAVKEENTVVVPSVALWPKLRPLLYLAASFLLMIGMFKAFSLFGVGSDTGRTTSTSAGLVALDHGDTRWSEDTDYRDFLHDNCAETVSDEWVLTDFSE , which is 2.5

Kindly note the recorded fold repression for AS22_4450 (protein) MELDDMKHAWQTLEQRLDQQAAQTGQLLGVVHEETVRSSLRPLWVAQTAQLLCALALAIVSARSWIPHTDQPVAVIGGVLLQAWCMALAISAMVQLQLLTQFNVAGPLLRTQHALARLRRWRTRVAPWLGVAFWVLWIAVADALWRALTGQTLPTDWLVLNLLVGVAGGIGTWLGFRRLQRAQHPWLERIDRAHAGTGVIRAERMLEEIARFQRD , which is 1.79

Kindly note the recorded fold repression for AS20_992 (protein) MTPERFVHLADAYGADLQRWPSAERAAAQALLDCGDAQAVAALRQAHWLDSQLDRYQVPAPSPALAQRIIAAAQQPGAPFWSRYAGWLASLGWVGVGLTGVAAGMLAVALSLPLSTSAEALPSVFDQSDAEFVLSINAEEAEQ , which is 1.71

Kindly note the recorded fold repression for AS25_1645 (protein) MNESFSQRQTDGDRRRGGDLEMKKNHTSHQHHTDSETPMGHNFEQFQRLSAYFDGEATPAERKEIQHLLDTDPQVKQQYQQLRQLKQALQLLPIPTSISAQYLGQRVLARLRRSQLRTLSLWGSGAIAALFVAGVMGQMPRLNFDRFAKNDPDQQPTAALVETSPQGEEALVVALNRPVLQIPKLATTESP , which is 6.9
